Taken from patent US4443460A.

System: passive cutaneous anaphylaxis
Test Method Notes: passive cutaneous anaphylaxis test (PCA), antiallergic activity
Assay type: in vivo
Test Conditions: Rattus norvegicus, 0.25 h; rats, oral, allergen i.v. 15 minutes after administration; read-out: ID 50 per os (reduction of 50% of the surface area of the colored spot)
Mark each entry class 1 if its ED50 sits below 40 µmol/kg, and class 0 for all others.

>>> group("O=C(O)COCCN1CCC(=C(c2ccccc2)c2ccc(F)cc2)CC1 [compound L]")
"class 1"
>>> group("Cl.O=C(O)COCCOCCN1CCC(=C(c2ccccc2)c2ccccc2)CC1 [compound A, hydrochloride]")
"class 0"
>>> group("Cl.O=C(O)COCCN1CCC(=C(c2ccccc2)c2ccc(Cl)cc2)CC1 [compound I, hydrochloride]")
"class 0"
>>> group("Cl.O=C(COCCOCCN1CCC(=C(c2ccccc2)c2ccccc2)CC1)Nc1ccccc1 [compound N, hydrochloride]")
"class 1"
>>> group("Cl.NC(=O)COCCN1CCC(=C(c2ccccc2)c2ccc(Cl)cc2)CC1 [compound D, hydrochloride]")
"class 0"
>>> group("NC(=O)COCCN1CCC(=C(c2ccccc2)c2ccc(F)cc2)CC1 [compound G]")
"class 1"
>>> group("Cl.O=C(O)COCCN1CCC(=C(c2ccccc2)c2ccccc2Cl)CC1 [compound K, hydrochloride]")
"class 0"
>>> group("COc1ccc(C(=C2CCN(CCOCC(N)=O)CC2)c2ccccc2)cc1.Cl [compound H, hydrochloride]")
"class 1"
>>> group("NC(=O)COCCOCCN1CCC(=C(c2ccccc2)c2ccc(Cl)cc2)CC1 [compound E]")
"class 1"

###

Test Method Notes: Oral toxicity LD50 in mice
Test Conditions: mouse, in vivo
Measured Parameter: LD50 (mg/kg)

>>> value_observed("Cl.O=C(O)COCCOCCN1CCC(=C(c2ccccc2)c2ccccc2)CC1")
959

###

Recorded ED50 for the following compounds
System: passive cutaneous anaphylaxis
Test Method Notes: passive cutaneous anaphylaxis test (PCA), antiallergic activity
Format: in vivo
Test Conditions: Rattus norvegicus, 0.25 h; rats, oral, allergen i.v. 15 minutes after administration; read-out: ID 50 per os (reduction of 50% of the surface area of the colored spot)
Counter-ions that a name gives are not always drawn.
Measured Parameter: ED50

>>> value_observed("NC(=O)COCCN1CCC(=C(c2ccccc2)c2ccccc2Cl)CC1 [compound F, hydrochloride]")
"66 µmol/kg"
>>> value_observed("COc1ccc(C(=C2CCN(CCOCC(=O)O)CC2)c2ccccc2)cc1.Cl [compound M, hydrochloride]")
"208 µmol/kg"
>>> value_observed("Cl.NC(=O)COCCOCCN1CCC(=C(c2ccccc2)c2ccccc2)CC1 [compound C, hydrochloride]")
"76 µmol/kg"
>>> value_observed("Cl.O=C(O)COCCOCCN1CCC(=C(c2ccccc2)c2ccc(Cl)cc2)CC1 [compound J, hydrochloride]")
"100 µmol/kg"

###

Test Method Notes: Oral toxicity LD50 in rats
Test Conditions: rat, in vivo
Measured Parameter: LD50 (mg/kg)

>>> value_observed("Cl.O=C(O)COCCOCCN1CCC(=C(c2ccccc2)c2ccccc2)CC1 [compound A]")
1900

###

Recorded "Tranquilizing" dose (first manifestations of tranquilization) for the following compounds
Tested on: mice
Test Method Notes: General behaviour of mice (Irwin's test), tranquilization
Format: in vivo
Test Conditions: male mice, intraperitoneal
Measured Parameter: "Tranquilizing" dose (first manifestations of tranquilization)

>>> value_observed("COc1ccc(C(=C2CCN(CCOCC(=O)O)CC2)c2ccccc2)cc1.Cl")
"125 mg/kg"
>>> value_observed("Cl.O=C(O)COCCN1CCC(=C(c2ccccc2)c2ccccc2)CC1")
"105 mg/kg"
>>> value_observed("Cl.O=C(O)COCCOCCN1CCC(=C(c2ccccc2)c2ccc(Cl)cc2)CC1")
"47 mg/kg"
>>> value_observed("O=C(O)COCCN1CCC(=C(c2ccccc2)c2ccc(F)cc2)CC1")
"110 mg/kg"
>>> value_observed("Cl.O=C(O)COCCN1CCC(=C(c2ccccc2)c2ccc(Cl)cc2)CC1")
"76 mg/kg"
>>> value_observed("Cl.O=C(O)COCCOCCN1CCC(=C(c2ccccc2)c2ccccc2)CC1")
"130 mg/kg"
>>> value_observed("OCCOCCN1CCN(C(c2ccccc2)c2ccc(Cl)cc2)CC1 (stereo not shown) [Hydroxyzine, reference compound]")
"27 mg/kg"
>>> value_observed("O=C1Nc2ccc(Cl)cc2C(c2ccccc2)=NC1O (stereo not shown) [Oxazepam, reference compound]")
"2.6 mg/kg"
>>> value_observed("Cl.O=C(O)COCCN1CCC(=C(c2ccccc2)c2ccccc2Cl)CC1")
"126 mg/kg"

###

Tested on: mice
Test Conditions: mouse, in vivo, ip
Method: Progressive doses of the test compounds are administered intraperitoneally to groups of three male mice (body weight 18 to 22 g) and the general behaviour of the animals is observed according to known criteria. […] Furthermore, in this test, the toxicity of the compounds according to the present invention appears to be very low. This toxicity, determined by intraperitoneal administration in mice (dose which brings about the death of two animals out of three), is given in the following Table: […]
Where a name gives a salt, the structure may show the parent alone.
Recorded Toxicity (dose which brings about the death of two animals out of three) for the following compounds
Measured Parameter: Toxicity (dose which brings about the death of two animals out of three) (mg/kg)

>>> value_observed("Cl.O=C(O)COCCN1CCC(=C(c2ccccc2)c2ccccc2)CC1")
233
>>> value_observed("Cl.O=C(O)COCCOCCN1CCC(=C(c2ccccc2)c2ccc(Cl)cc2)CC1")
140
>>> value_observed("Cl.O=C(O)COCCOCCN1CCC(=C(c2ccccc2)c2ccccc2)CC1")
432
>>> value_observed("Cl.NC(=O)COCCOCCN1CCC(=C(c2ccccc2)c2ccccc2)CC1")
258
>>> value_observed("NC(=O)COCCN1CCC(=C(c2ccccc2)c2ccc(F)cc2)CC1")
368
>>> value_observed("O=C(O)COCCN1CCC(=C(c2ccccc2)c2ccc(F)cc2)CC1")
369
>>> value_observed("Cl.NC(=O)COCCN1CCC(=C(c2ccccc2)c2ccc(Cl)cc2)CC1")
126
>>> value_observed("NC(=O)COCCN1CCC(=C(c2ccccc2)c2ccccc2Cl)CC1 [compound F, hydrochloride]")
421
>>> value_observed("NC(=O)COCCOCCN1CCC(=C(c2ccccc2)c2ccc(Cl)cc2)CC1")
128

###

Recorded Toxicity (dose which brings about the death of two animals out of three) for the following molecules
Test system: mice
Test Conditions: mouse, in vivo, ip
Measured Parameter: Toxicity (dose which brings about the death of two animals out of three)

>>> value_observed("Cl.O=C(O)COCCN1CCC(=C(c2ccccc2)c2ccc(Cl)cc2)CC1 [compound I]")
"844 mg/kg"
>>> value_observed("COc1ccc(C(=C2CCN(CCOCC(=O)O)CC2)c2ccccc2)cc1.Cl [compound M]")
"418 mg/kg"
>>> value_observed("Cl.O=C(O)COCCN1CCC(=C(c2ccccc2)c2ccccc2Cl)CC1 [compound K]")
"422 mg/kg"
>>> value_observed("COc1ccc(C(=C2CCN(CCOCC(N)=O)CC2)c2ccccc2)cc1.Cl [compound H]")
"416 mg/kg"
